Sourced from PubChem BioAssay AID651640

MEASUREMENT_NOTES: inhibitors of DENV2 cytopathic effect, primary screen, cell-based, plate reader, single concentration (AID 651640);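 note: 0% = median of neutral control wells and 100% = median of positive control wells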
MEASUREMENT_CONDITIONS: DENV2-infected cells, cytopathic effect rescue, at 9.99 µM
Among all 350,000 compounds or so, about 6,000 (1.7%) were called active. Roughly 5% stayed inconclusive and do not appear here. Cut-off read from the data, not from the text of the source: active = CPE inhibition above about 20% (passing the limit was not always enough); inconclusive = no clear call, values can overlap the other calls; tested in BHK-21 cells. Only a selection was taken, and actives are over-represented in it overall.
Respond only with the outcome that fits, drawn from YES = active, NO = inactive

1. COC(=O)C[C@@H]1CC[C@@H]2[C@H](COc3ccc(NS(=O)(=O)c4ccccc4F)cc3C(=O)N2C)O1 :: NO
2. COc1ccc(C(=O)NCCSc2ccccc2C)cc1 :: NO

Returns: the outcome recorded for COc1ccc(CN(C)C[C@H]2OCCCC[C@H](C)Oc3ccc(NC(=O)c4ccccc4)cc3C(=O)N([C@@H](C)CO)C[C@@H]2C)cc1 in this assay.
NO

Returns: the outcome recorded for c1ccc(-c2ccc(OCCN3CCOCC3)cc2)cc1 in this assay.
YES

Returns: the outcome recorded for Cc1cccc(C)c1OCCN1CCOCC1 in this assay.
NO

----------
MEASUREMENT_NOTES: inhibitors of DENV2 cytopathic effect, primary screen, cell-based, plate reader, single concentration (AID 651640);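 note: 0% = median of neutral control wells and 100% = median of positive control wells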
MEASUREMENT_CONDITIONS: DENV2-infected cells, cytopathic effect rescue, at 9.99 µM, hits give high values
In all, about 350,000 compounds went through this assay and about 6,000 (1.7%) were called active. About 5% were inconclusive and are not listed. The full list was thinned out, with actives kept by preference.
MEASURED_PARAMETER: CPE inhibition (%)
Numbers only, in %.

In the examples that follow, each entry is paired with its recorded CPE inhibition.
1. N#Cc1cccc(-c2ccc([C@H]3[C@@H](CO)N4CCCCN(C(=O)Nc5ccccc5)C[C@H]34)cc2)c1 :: -9.56
2. CCS(=O)(=O)N1CC2(CN(C(=O)c3ccc(F)cc3)[C@@H](CO)c3c2c2ccc(OC)cc2n3C)C1 :: -7
3. C[C@@H]1CN([C@H](C)CO)C(=O)c2cc(NS(C)(=O)=O)ccc2O[C@@H]1CN(C)S(C)(=O)=O :: -0.244
4. CC(C)NC(=O)N(C)C[C@H]1Oc2ncc(-c3cccc(C#N)c3)cc2C(=O)N([C@@H](C)CO)C[C@H]1C :: 1.79
5. COc1ccc2c3c(n(C)c2c1)[C@H](CO)N(CC1CCCCC1)CC31CCN(Cc2nccs2)CC1 :: 22.7

Need CPE inhibition for each of these molecules.
1. Cc1ccc(S(=O)(=O)NCC[C@@H]2CC[C@H](NC(=O)CC3CC3)[C@H](CO)O2)cc1
2. COc1cc(CN2CC3(CN(S(=O)(=O)c4cn(C)cn4)C3)c3c(n(C)c4cc(OC)ccc34)[C@H]2CO)cc(OC)c1
3. C[C@@H]1CN([C@@H](C)CO)C(=O)c2cc(C#CCc3ccccc3)cnc2O[C@@H]1CN(C)C(=O)C1CCOCC1
4. COc1ccc2c3c(n(C)c2c1)[C@H](CO)N(C(=O)CC1CC1)CC31CCN(Cc2nccs2)CC1
5. C[C@H](CO)N1C[C@H](C)[C@@H](CN(C)C(=O)C2CC2)Oc2ncc(-c3cccc(C#N)c3)cc2C1=O
6. C[C@H](CO)N1C[C@H](C)[C@H](CN(C)C(=O)C2CCC2)Oc2ncc(C#CCc3ccccc3)cc2C1=O
7. C[C@@H]1CCCCO[C@@H](CN(C)C(=O)Cc2ccccc2)[C@@H](C)CN([C@@H](C)CO)C(=O)c2cc(NC(=O)c3ccccc3)ccc2O1

1. -2.24
2. 58.8
3. 95.4
4. -5.74
5. -9.11
6. -7.04
7. -1.37

Need CPE inhibition for each of these molecules.
1. COc1ccc2c3c([nH]c2c1)[C@@H](CO)N(C(=O)C1CC1)CC31CCN(Cc2nccs2)CC1
2. C/C=C/c1cnc2c(c1)C(=O)N([C@H](C)CO)C[C@H](C)[C@H](CN(C)C(=O)c1cccc(F)c1)O2

[25.2, -1]

Need CPE inhibition for each of these molecules.
1. C[C@H]1CN([C@@H](C)CO)C(=O)c2ccccc2-c2ccccc2CO[C@H]1CN(C)S(=O)(=O)c1cccc(C#N)c1
2. Cc1noc(C)c1NC(=O)Nc1ccc2c(c1)CC(=O)N([C@@H](C)CO)C[C@@H](C)[C@H](CN(C)C(=O)NC1CCCCC1)O2
3. CCS(=O)(=O)N1CC2(CN(C(=O)c3ccc(F)cc3)[C@H](CO)c3c2c2ccc(OC)cc2n3C)C1
4. COc1ccc(NC(=O)Nc2ccc3c(c2)C(=O)N([C@H](C)CO)C[C@@H](C)[C@@H](CN(C)C(=O)NC(C)C)OCCCC[C@H](C)O3)cc1
5. O=S(=O)(Cc1ccccc1)N1CCCCN2[C@@H](CO)[C@@H](c3ccc(-c4ccc(F)cc4)cc3)[C@@H]2C1

1. 99.5
2. 1.27
3. 21.9
4. 4.29
5. -23

Need CPE inhibition for each of these molecules.
1. CO[C@@H]1CN(C)C(=O)c2cc(NC(=O)NC3CCCCC3)ccc2OC[C@H](C)N(CC2CC2)C[C@H]1C
2. CCCC#Cc1cnc2c(c1)C(=O)N([C@H](C)CO)C[C@@H](C)[C@@H](CN(C)C(=O)C1CCOCC1)O2

5.48
-8.59

----------
MEASUREMENT_NOTES: inhibitors of DENV2 cytopathic effect, primary screen, cell-based, plate reader, single concentration (AID 651640);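 note: 0% = median of neutral control wells and 100% = median of positive control wells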
MEASUREMENT_CONDITIONS: DENV2-infected cells, cytopathic effect rescue, at 9.99 µM
The campaign covered roughly 350,000 compounds. About 6,000 (1.7%) were called active. Inconclusive results (about 5%) are left out. Rule as the data show it: active = CPE inhibition above about 20% (passing the limit was not always enough); inconclusive = no clear call, values can overlap the other calls; tested in BHK-21 cells. For the sample, actives were picked, then their nearest neighbours and some compounds at random.
Respond only with the outcome that fits, drawn from 1 (yes) for active, 0 (no) for inactive

1) Cc1ccc(CC2(C)C(=O)Nc3ccc(OC(F)(F)F)cc32)cc1 (stereo not drawn) :: 0 (no)
2) COCC(=O)N(C)C[C@@H]1Oc2ncc(C#C[C@H](C)O)cc2C(=O)N([C@@H](C)CO)C[C@@H]1C :: 0 (no)
3) Cc1noc(C)c1S(=O)(=O)Nc1ccc2c(c1)C(=O)N([C@@H](C)CO)C[C@@H](C)[C@@H](CN(C)C)O2 :: 0 (no)
4) Cc1ccc(S(=O)(=O)Nc2ccc3c(c2)C(=O)N([C@@H](C)CO)C[C@@H](C)[C@H](CN(C)Cc2ccc4c(c2)OCO4)OCCCC[C@@H](C)O3)cc1 :: 0 (no)
5) CCc1ccc2c(c1)NC(=O)C2(C)Cc1ccc(OC(F)(F)F)cc1 (stereo not drawn) :: 1 (yes)
6) COc1ccccc1CC1(C)C(=O)Nc2ccc(OC(F)(F)F)cc21 (stereo not drawn) :: 0 (no)
7) CC(=O)Nc1ccc2c(c1)C(=O)N(C)[C@@H]1CC[C@@H](CC(=O)NCC3CCCCC3)O[C@@H]1CO2 :: 0 (no)

Returns: the outcome recorded for Cc1ccc(S(=O)(=O)Nc2ccc3c(c2)C(=O)N([C@@H](C)CO)C[C@@H](C)[C@@H](CN(C)Cc2ccncc2)O3)cc1 in this assay.
0 (no)

----------
MEASUREMENT_NOTES: inhibitors of DENV2 cytopathic effect, primary screen, cell-based, plate reader, single concentration (AID 651640);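 note: 0% = median of neutral control wells and 100% = median of positive control wells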
MEASUREMENT_CONDITIONS: DENV2-infected cells, cytopathic effect rescue, at 9.99 µM, hits give high values
About 6,000 (1.7%) of roughly 350,000 compounds were called active. About 5% were inconclusive and are not listed. Shown is part of a subset that was picked to be rich in actives.
MEASURED_PARAMETER: CPE inhibition (%)
One number for each entry, in %.

1. C[C@@H]1CN([C@H](C)CO)S(=O)(=O)c2ccc(C#C[C@@H](C)O)cc2O[C@H]1CN(C)C(=O)C1CCCCC1 :: -8.28
2. O=C(c1cccnc1)N1CC(=O)N2[C@H](CO)[C@@H](c3ccc(-c4ccc(F)cc4)cc3)[C@@H]2C1 :: -0.715
3. CC(C)NC(=O)N(C)C[C@@H]1Oc2ncc(C3=CCCCC3)cc2C(=O)N([C@H](C)CO)C[C@@H]1C :: 4.71
4. COC(=O)[C@]1(Cc2ccccc2)NC=C(C(=O)c2ccccc2)[C@@H]1c1cccc(OC)c1 :: -11.9
5. C[C@H](CO)N1C[C@H](C)[C@@H](CN(C)C(=O)Nc2ccnc(N3CCOCC3)c2)OCc2ccccc2-c2c(n(C)c3ccccc23)C1=O :: -11.2

Need CPE inhibition for each of these compounds.
1. O=C(C[C@H]1CC[C@H]2[C@@H](COC[C@H](O)CN2Cc2nccs2)O1)NCc1ccc(Oc2ccccc2)cc1
2. CCC(=O)N1CCCCN2[C@H](C1)[C@@H](c1ccc(/C=C/c3ccccc3)cc1)[C@@H]2CO
3. OC(CCl)CCl
4. CCOc1ccccc1Nc1ccc(C(=O)O)cc1[N+](=O)[O-]
5. CCNC(=O)C[C@@H]1CC[C@H]2[C@@H](COc3ccc(NC(=O)Cc4cccs4)cc3C(=O)N2C)O1
6. COc1ccc2c3c(n(C)c2c1)[C@H](CO)N(C(=O)C1CCCC1)CC31CCN(C(=O)c2ccncc2)CC1

1: 3.47; 2: -4.84; 3: 32.4; 4: 2.94; 5: -0.188; 6: 4.15

Need CPE inhibition for each of these compounds.
1. COCC(=O)Nc1ccc2c(c1)OC[C@@H](C)N(C(=O)c1cnccn1)C[C@H](C)[C@H](OC)CN(C)C2=O
2. NC(=O)c1ccc(Nc2ccc3nonc3c2[N+](=O)[O-])cc1
3. C[C@@H]1CN([C@H](C)CO)S(=O)(=O)c2ccc(Br)cc2O[C@@H]1CN(C)Cc1cncnc1
4. C[C@@H]1CN([C@@H](C)CO)C(=O)c2cc(C3=CCCC3)cnc2O[C@H]1CN(C)C(=O)c1ccccn1
5. C[C@@H]1CCCCO[C@@H](CN(C)S(=O)(=O)c2cccs2)[C@@H](C)CN([C@H](C)CO)C(=O)c2cc(NC(=O)Nc3ccc4c(c3)OCO4)ccc2O1
6. COc1ccc2c3c([nH]c2c1)[C@H](CO)N(C(=O)Nc1ccc(F)cc1)CC31CCN(C(=O)Nc2c(C)noc2C)CC1

[-10.2, -0.407, 19.1, 1.01, -1.49, -3.75]
